Exercise: state measured melting point for each of the compounds provided.

{"columns": ["compound", "endpoint_label", "measured"],
 "data": [
  ["Cc1ccc2oc(=O)c3c(c2c1)OC(N=Cc1ccc(Cl)cc1Cl)=C(C#N)C3c1ccc([N+](=O)[O-])cc1 (racemic)", "melting point", "236 to 238 °C"]
]}

Working through the 5 compounds below one at a time, give melting point for each.
1. Cc1ccc2oc(=O)c3c(c2c1)OC(N)=C(C(N)=O)C3c1ccco1 (racemic)
2. Cc1ccc2oc(=O)c(S(=O)(=O)Nc3ccc(C(=O)/C=C/c4ccc([N+](=O)[O-])cc4)cc3)c(O)c2c1 [Compound 12b]
3. CC(=O)c1ccc(NS(=O)(=O)c2c(O)c3cc(Cl)ccc3oc2=O)cc1 [Compound 11e]
4. CC(=O)c1ccc(NS(=O)(=O)c2c(O)c3cc(C)ccc3oc2=O)cc1 [Compound 11f]
5. O=c1oc2ccc(Cl)cc2c(O)c1S(=O)(=O)Nc1ccc(S(=O)(=O)Nc2ncccn2)cc1 [Compound 10c]

Response:
202 to 204 °C
220 to 222 °C
238 to 240 °C
231 to 232 °C
230 to 232 °C

----------
Exercise: state measured melting point for each of the compounds provided.

Example compounds with recorded melting point:
{"columns": ["compound", "endpoint_label", "measured"],
 "data": [
  ["O=C(/C=C/c1ccc(Cl)cc1)c1ccc(NS(=O)(=O)c2c(O)c3cc(Cl)ccc3oc2=O)cc1 [Compound 12c]", "melting point", "157 to 159 °C"],
  ["COc1cc(C=NC2=C(C#N)C(c3ccco3)c3c(c4cc(C)ccc4oc3=O)O2)cc(OC)c1OC (racemic) [Compound 8d]", "melting point", "248 to 250 °C"],
  ["COc1ccc(/C=C/C(=O)c2ccc(NS(=O)(=O)c3c(O)c4cc(C)ccc4oc3=O)cc2)cc1 [Compound 12f]", "melting point", "> 300 °C"]
]}

Request: Look at this compound and give its reported melting point. Cc1ccc2oc(=O)c3c(c2c1)OC(N)=C(C#N)C3c1ccc([N+](=O)[O-])cc1 (racemic) [Compound 5a]
Response: 259 to 261 °C

----------
system: trypsin; assay: Proteinase inhibitory activity (trypsin/casein); format: biochemical
endpoint_label: in vitro anti-proteinase activity compared with aspirin

Example compounds with recorded in vitro anti-proteinase activity compared with aspirin:
{"columns": ["compound", "measured"],
 "data": [
  ["Cc1ccc2oc(=O)c3c(c2c1)OC(N)=C(C(N)=O)C3c1ccc([N+](=O)[O-])cc1 (racemic) [Compound 6a]", "more potent"],
  ["Cc1ccc2oc(=O)c(S(=O)(=O)Nc3ccc(S(=O)(=O)Nc4nccs4)cc3)c(O)c2c1 [Compound 10f]", "as potent"],
  ["O=C(/C=C/c1ccc([N+](=O)[O-])cc1)c1ccc(NS(=O)(=O)c2c(O)c3cc(Cl)ccc3oc2=O)cc1 [Compound 12a]", "more potent"],
  ["O=c1oc2ccc(Cl)cc2c(O)c1S(=O)(=O)Nc1ccc(O)cc1 [Compound 11c]", "as potent"],
  ["Cc1ccc2oc(=O)c3c(c2c1)OC(N)=C(C#N)C3c1ccco1 (racemic) [Compound 5b]", "more potent"],
  ["COc1cc(C=NC2=C(C#N)C(c3ccco3)c3c(c4cc(C)ccc4oc3=O)O2)cc(OC)c1OC (racemic) [Compound 8d]", "as potent"]
]}

Request: Look at this compound and give its reported in vitro anti-proteinase activity compared with aspirin. Cc1ccc2oc(=O)c3c(c2c1)OC(N=Cc1ccc(Cl)cc1Cl)=C(C#N)C3c1ccc([N+](=O)[O-])cc1 (racemic) [Compound 8e]
Response: as potent
